Each entry below lists one item and its recorded EC50 value.
- Tgt: Peroxisome proliferator-activated receptor gamma (Mus musculus)
- Sequence (P37238 whole entry): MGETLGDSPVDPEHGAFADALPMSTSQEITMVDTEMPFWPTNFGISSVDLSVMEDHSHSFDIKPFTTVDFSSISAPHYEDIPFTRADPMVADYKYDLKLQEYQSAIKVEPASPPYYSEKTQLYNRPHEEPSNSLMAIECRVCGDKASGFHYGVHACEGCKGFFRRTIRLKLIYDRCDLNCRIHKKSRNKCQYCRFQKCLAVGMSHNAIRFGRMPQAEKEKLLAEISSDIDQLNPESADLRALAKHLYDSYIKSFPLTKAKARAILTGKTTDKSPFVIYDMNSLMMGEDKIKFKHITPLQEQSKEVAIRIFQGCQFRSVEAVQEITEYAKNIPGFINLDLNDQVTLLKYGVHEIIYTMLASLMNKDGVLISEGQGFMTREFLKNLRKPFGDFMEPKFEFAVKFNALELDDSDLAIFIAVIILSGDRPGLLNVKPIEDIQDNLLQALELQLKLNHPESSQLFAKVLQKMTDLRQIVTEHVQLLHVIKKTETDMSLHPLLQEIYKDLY

| Structure As Smiles | EC50 |
| --- | --- |
| CCCCS(=O)(=O)Nc1ccc(CNC(=O)c2sc(-c3ccc(C(F)(F)F)cc3)nc2C)cc1 | 6.7 µM |
| Cc1nc(-c2ccc(C(F)(F)F)cc2)sc1C(=O)NCc1ccc(CNS(=O)(=O)C(F)(F)F)cc1 | > 10 µM |
| Cc1nc(-c2ccc(C(F)(F)F)cc2)sc1C(=O)NCc1ccc(NC(=O)C(F)(F)F)cc1 | > 10 µM |
| Cc1nc(-c2ccc(C(F)(F)F)cc2)sc1C(=O)NCc1ccc(-c2c(O)c(=O)c2=O)cc1 | > 10 µM |
| Cc1nc(-c2ccc(C(F)(F)F)cc2)sc1C(=O)NCc1ccc(NS(C)(=O)=O)cc1 | > 10 µM |
| Cc1nc(-c2ccc(C(F)(F)F)cc2)sc1C(=O)NCc1ccc(NS(=O)(=O)CC(F)(F)F)cc1 | 0.3 µM |
| Cc1nc(-c2ccc(C(F)(F)F)cc2)sc1C(=O)NCc1ccc(NS(=O)(=O)C(C)C)cc1 | > 10 µM |
| Cc1nc(-c2ccc(C(F)(F)F)cc2)sc1C(=O)NCc1ccc(OC(C)(C)C(=O)O)cc1 | 9.7 µM |
| Cc1nc(-c2ccc(C(F)(F)F)cc2)sc1C(=O)NCc1ccc(OC(C)(C)C(=O)NS(=O)(=O)C(F)(F)F)cc1 | > 10 µM |
| Cc1nc(-c2ccc(C(F)(F)F)cc2)sc1C(=O)NCc1ccc(OCc2nn[nH]n2)cc1 | > 10 µM |
| Cc1nc(-c2ccc(C(F)(F)F)cc2)sc1C(=O)NCc1ccc(NS(=O)(=O)C(F)(F)F)cc1 | 0.6 µM |
| O=C(NCc1ccc(NS(=O)(=O)C(F)(F)F)cc1)c1ccc(-c2ccc(Cl)cc2)cc1 | 0.6 µM |
| Cc1ccc(S(=O)(=O)Nc2ccc(CNC(=O)c3sc(-c4ccc(C(F)(F)F)cc4)nc3C)cc2)cc1 | > 10 µM |
